test: Cytotoxicity against human HEL cells assessed as drug level causing microscopically detectable alteration of normal cell morphology after 3 days; format: cell-based
measured-quantity: MCC at 72 h (µM)

1) Cc1cc(C)cc(S(=O)(=O)c2c(C(=O)NCCS(N)(=O)=O)[nH]c3ccc(Br)cc23)c1 = 20
2) Cc1cc(C)cc(S(=O)(=O)c2c(C(=O)NC(C)C(N)=O)[nH]c3ccc([N+](=O)[O-])cc23)c1 (stereo unspecified) = 100
3) Cc1cc(C)cc(S(=O)(=O)c2c(C(=O)NCCC(N)=O)[nH]c3ccc(Br)cc23)c1 = 20
4) Cc1cc(C)cc(S(=O)(=O)c2c(C(=O)NC(C)CS(N)(=O)=O)[nH]c3ccc(Cl)cc23)c1 (stereo unspecified) = 20
5) Cc1cc(C)cc(S(=O)(=O)c2c(C(=O)NCC(N)=O)[nH]c3ccc([N+](=O)[O-])cc23)c1 = 100
6) Cc1cc(C)cc(S(=O)(=O)c2c(C(=O)NC(C)CS(N)(=O)=O)[nH]c3ccc(Br)cc23)c1 (stereo unspecified) = 20
7) Cc1cc(C)cc(S(=O)(=O)c2c(C(=O)NC(C)C(N)=O)[nH]c3ccc(Br)cc23)c1 (stereo unspecified) = 20
8) Cc1cc(C)cc(S(=O)(=O)c2c(C(=O)NC(C)CC(N)=O)[nH]c3ccc(Br)cc23)c1 (stereo unspecified) = 20
9) Cc1cc(C)cc(S(=O)(=O)c2c(C(=O)NCCC(N)=O)[nH]c3ccc(Cl)cc23)c1 = 20
10) Cc1cc(C)cc(S(=O)(=O)c2c(C(=O)NC(C)C(N)=O)[nH]c3ccc(Cl)c(F)c23)c1 (stereo unspecified) = 100
11) Cc1cc(C)cc(S(=O)(=O)c2c(C(=O)NCCC(N)=O)[nH]c3ccc(Cl)c(F)c23)c1 = 100
12) Cc1cc(C)cc(S(=O)(=O)c2c(C(=O)NC(C)CC(N)=O)[nH]c3ccc(Cl)cc23)c1 (stereo unspecified) = 100
13) Cc1cc(C)cc(S(=O)(=O)c2c(C(=O)NC(C)CC(N)=O)[nH]c3ccc(Cl)c(F)c23)c1 (stereo unspecified) = 100
14) Cc1cc(C)cc(S(=O)(=O)c2c(C(=O)NCC(N)=O)[nH]c3ccc(Cl)c(F)c23)c1 = 100
15) Cc1cc(C)cc(S(=O)(=O)c2c(C(=O)NCCS(N)(=O)=O)[nH]c3ccc(Cl)c(F)c23)c1 = 100
16) Cc1cc(C)cc(S(=O)(=O)c2c(C(=O)NCCS(N)(=O)=O)[nH]c3ccc(Cl)cc23)c1 = 20
17) Cc1cc(C)cc(S(=O)(=O)c2c(C(=O)NCC(N)=O)[nH]c3ccc(Br)cc23)c1 = 100
18) Cc1cc(C)cc(S(=O)(=O)c2c(C(=O)NCCS(N)(=O)=O)[nH]c3ccc([N+](=O)[O-])cc23)c1 = 20
19) Cc1cc(C)cc(S(=O)(=O)c2c(C(=O)NC(C)CC(N)=O)[nH]c3ccc([N+](=O)[O-])cc23)c1 (stereo unspecified) = 20
20) Cc1cc(C)cc(S(=O)(=O)c2c(C(=O)NC(C)CS(N)(=O)=O)[nH]c3ccc(Cl)c(F)c23)c1 (stereo unspecified) = 20
